Please provide measured log10 of IC50 for the entries that follow.
# study-target: UniProtKB P49286
All values: base-10 log of IC50 in nM.

COc1cc2c(cc1OC)C(CCc1ccccc1)N(C(=O)C1CCC1)CC2 (centres undefined) | 1.38

For each of the items listed, what is its log10 of IC50?
1. COc1cc2c(cc1OC)C(CCc1ccccc1)N(C(C)=O)CC2 (centres undefined)
2. CCC(=O)N1CCc2cc(OC)c(OC)cc2C1CC(c1ccccc1)c1ccccc1 (centres undefined)

A:
[1.88, 1.79]

---

Target protein (sequence): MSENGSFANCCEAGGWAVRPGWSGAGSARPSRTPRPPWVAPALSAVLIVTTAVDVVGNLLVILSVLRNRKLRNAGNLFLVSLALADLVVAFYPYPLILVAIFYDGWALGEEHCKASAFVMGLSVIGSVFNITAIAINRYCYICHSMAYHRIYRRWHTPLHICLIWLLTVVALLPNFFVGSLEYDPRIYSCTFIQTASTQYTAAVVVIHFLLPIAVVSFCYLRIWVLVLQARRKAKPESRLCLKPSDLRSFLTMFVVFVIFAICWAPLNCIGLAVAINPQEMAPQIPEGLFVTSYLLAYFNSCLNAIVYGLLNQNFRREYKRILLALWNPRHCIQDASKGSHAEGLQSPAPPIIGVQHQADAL
parameter: pIC50
Numbers only, as −log10 of the molar value.

// known answers, use as guide
COc1cc2c(c(OC)c1)C(CC(c1ccccc1)c1ccccc1)N(C(C)=O)CC2 (stereo unspecified) | 7.35
COc1cc2c(cc1OC)C(CC(c1ccccc1)c1ccccc1)N(C(=O)c1ccc(C(F)(F)F)cc1)CC2 (stereo unspecified) | 6.09
CCCCCCC(=O)N1CCc2cc(OC)c(OC)cc2C1CC(c1ccccc1)c1ccccc1 (stereo unspecified) | 6.40
COc1cc2c(cc1OC)C(CCc1ccccc1)N(C(=O)c1ccc(C(F)(F)F)cc1)CC2 (stereo unspecified) | 6.00
COc1cc2c(cc1OC)C(CCc1ccccc1)N(C(N)=O)CC2 (stereo unspecified) | 6.80
CCCCCC(=O)N1CCc2cc(OC)c(OC)cc2C1CC(c1ccccc1)c1ccccc1 (stereo unspecified) | 6.55

For each of the items listed, what is its pIC50?
1. COc1cc2c(cc1OC)C(CC(c1ccccc1)c1ccccc1)N(C=O)CC2 (stereo unspecified)
2. COc1cc2c(cc1OC)C(CC(c1ccccc1)c1ccccc1)N(C(=O)C1CCC1)CC2 (stereo in doubt; 1j)
3. COc1cc2c(cc1OC)C(CC(c1ccccc1)c1ccccc1)N(C(=O)C1CCC1)CC2 (stereo in doubt; 1m)
4. CC(=O)N1CCc2cc(F)ccc2C1CC(c1ccccc1)c1ccccc1 (stereo unspecified)

A:
[8.00, 6.51, 6.62, 6.85]
